assay: Growth inhibition of HUVEC; format: cell-based; settings: human
quantity.measured: GI50

>>> recorded_result("COc1ccc(Oc2cc(C)c(-c3csc(NC(=O)c4ccnc(F)c4)n3)c(C)c2)cc1")
"> 9 µM"

---

target: Serine/threonine-protein kinase Chk2 (Homo sapiens)
Sequence (O96017 whole entry): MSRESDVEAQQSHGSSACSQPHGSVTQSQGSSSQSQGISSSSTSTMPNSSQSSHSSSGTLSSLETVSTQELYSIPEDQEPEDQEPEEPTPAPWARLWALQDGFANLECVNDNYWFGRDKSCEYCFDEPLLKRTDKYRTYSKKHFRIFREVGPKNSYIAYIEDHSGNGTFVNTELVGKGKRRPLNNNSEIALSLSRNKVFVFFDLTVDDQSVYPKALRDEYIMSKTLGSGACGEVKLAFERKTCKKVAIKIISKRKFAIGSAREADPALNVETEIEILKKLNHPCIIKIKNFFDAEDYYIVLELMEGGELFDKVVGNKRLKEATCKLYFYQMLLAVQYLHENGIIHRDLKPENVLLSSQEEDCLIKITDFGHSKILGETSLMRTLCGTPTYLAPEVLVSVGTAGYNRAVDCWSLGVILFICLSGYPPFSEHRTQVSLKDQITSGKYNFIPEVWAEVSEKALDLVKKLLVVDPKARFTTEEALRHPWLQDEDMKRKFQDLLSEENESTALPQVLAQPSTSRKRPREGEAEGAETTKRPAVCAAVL
quantity.measured: IC50

>>> recorded_result("COc1ccc(Oc2cc(C)c(-c3csc(NC(=O)c4ccnc(F)c4)n3)c(C)c2)cc1")
"> 10 µM"

---

Target: UniProtKB P36888
Sequence (P36888 whole entry): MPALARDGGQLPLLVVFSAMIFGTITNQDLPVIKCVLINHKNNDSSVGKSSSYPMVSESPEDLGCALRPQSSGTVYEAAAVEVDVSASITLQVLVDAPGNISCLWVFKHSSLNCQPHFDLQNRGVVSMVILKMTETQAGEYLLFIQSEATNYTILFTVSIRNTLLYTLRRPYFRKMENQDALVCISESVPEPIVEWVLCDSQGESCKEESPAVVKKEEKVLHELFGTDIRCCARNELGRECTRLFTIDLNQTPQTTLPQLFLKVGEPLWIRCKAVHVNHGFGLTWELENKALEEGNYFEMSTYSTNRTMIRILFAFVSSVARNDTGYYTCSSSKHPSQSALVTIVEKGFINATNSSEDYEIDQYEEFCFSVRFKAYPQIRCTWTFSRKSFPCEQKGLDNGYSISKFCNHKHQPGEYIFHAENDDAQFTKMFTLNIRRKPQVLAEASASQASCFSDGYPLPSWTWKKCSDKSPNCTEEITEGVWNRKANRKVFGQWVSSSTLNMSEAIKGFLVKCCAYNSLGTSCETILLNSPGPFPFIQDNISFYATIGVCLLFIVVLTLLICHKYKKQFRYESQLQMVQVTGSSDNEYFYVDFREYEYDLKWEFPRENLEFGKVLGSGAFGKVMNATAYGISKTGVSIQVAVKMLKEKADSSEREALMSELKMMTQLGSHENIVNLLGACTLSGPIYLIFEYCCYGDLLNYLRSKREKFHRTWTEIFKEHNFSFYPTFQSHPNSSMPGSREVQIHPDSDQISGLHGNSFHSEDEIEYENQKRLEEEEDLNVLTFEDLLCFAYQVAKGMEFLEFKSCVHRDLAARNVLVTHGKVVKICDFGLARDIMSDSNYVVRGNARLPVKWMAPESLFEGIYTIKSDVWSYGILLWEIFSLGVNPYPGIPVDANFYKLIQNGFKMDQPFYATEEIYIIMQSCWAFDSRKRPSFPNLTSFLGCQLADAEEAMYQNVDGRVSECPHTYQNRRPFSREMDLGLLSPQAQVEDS
pIC50: −log10 of the molar value.
quantity.measured: pIC50

>>> recorded_result("COc1ccc(Oc2cc(C)c(-c3csc(NC(=O)c4ccnc(F)c4)n3)c(C)c2)cc1")
"< 5.00"

---

experiment: Growth inhibition of human RPTEC cells; format: cell-based
quantity.measured: GI50

>>> recorded_result("COc1ccc(Oc2cc(C)c(-c3csc(NC(=O)c4ccnc(F)c4)n3)c(C)c2)cc1")
"> 9 µM"

---

target: Serine/threonine-protein kinase B-raf (Homo sapiens, UniProt P15056, V600E); experiment: Inhibition of B-Raf V600E mutant (unknown origin) assessed as [33P] incorporation in substrate by TopCount microplate scintillation counting analysis
Sequence (P15056 2-766 V600E limits assumed): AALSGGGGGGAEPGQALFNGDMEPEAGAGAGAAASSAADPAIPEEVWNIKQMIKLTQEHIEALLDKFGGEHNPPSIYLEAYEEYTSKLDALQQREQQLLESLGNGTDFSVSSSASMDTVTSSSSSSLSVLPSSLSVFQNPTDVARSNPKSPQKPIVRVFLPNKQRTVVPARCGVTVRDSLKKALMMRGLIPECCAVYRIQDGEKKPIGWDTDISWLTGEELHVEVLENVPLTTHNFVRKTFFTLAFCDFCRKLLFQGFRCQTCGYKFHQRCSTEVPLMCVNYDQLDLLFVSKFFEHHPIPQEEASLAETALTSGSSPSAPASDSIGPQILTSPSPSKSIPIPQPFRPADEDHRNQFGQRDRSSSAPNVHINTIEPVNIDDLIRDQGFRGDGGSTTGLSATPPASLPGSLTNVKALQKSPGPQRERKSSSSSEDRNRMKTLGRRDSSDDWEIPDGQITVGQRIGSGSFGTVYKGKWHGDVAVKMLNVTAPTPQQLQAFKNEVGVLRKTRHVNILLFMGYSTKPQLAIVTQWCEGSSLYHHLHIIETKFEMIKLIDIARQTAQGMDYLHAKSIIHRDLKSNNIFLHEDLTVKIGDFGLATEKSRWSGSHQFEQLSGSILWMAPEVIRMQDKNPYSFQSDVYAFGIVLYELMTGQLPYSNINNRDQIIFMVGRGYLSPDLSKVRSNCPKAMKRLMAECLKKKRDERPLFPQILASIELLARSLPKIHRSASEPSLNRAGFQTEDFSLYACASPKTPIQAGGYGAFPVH
quantity.measured: IC50

>>> recorded_result("COc1ccc(Oc2cc(C)c(-c3csc(NC(=O)c4ccnc(F)c4)n3)c(C)c2)cc1")
"> 10 µM"
